Quick list: ED50 per entry.
Tested on: pentylenetetrazol (cardiazol) convulsions in mice
test-description: Anti-convulsive activity in relation to cardiazol
Type: in vivo
measurement-conditions: Mus musculus, oral, cardiazol 125 mg/kg intraperitoneally, protects 50% of animals, read-out: Anti-convulsive action Cardiazol ED50

compound | unit-spec | ED50
COC(=O)C1N=C(c2ccccc2Cl)c2cc(Cl)ccc2NC1=O (stereo not shown) [compound 7442] | mg/kg | 0.4
CCOC(=O)C1N=C(c2ccccc2F)c2cc(Cl)ccc2NC1=O (stereo not shown) [CM 6912] | mg/kg | 0.6
CCOC(=O)C1N=C(c2ccccc2Cl)c2cc(Cl)ccc2NC1=O (stereo not shown) [CM 7101] | mg/kg | 0.75
CCOC(=O)C1N=C(c2ccccc2)c2cc(Cl)ccc2NC1=O (stereo not shown) [CM 4279, reference compound] | mg/kg | 9

The measured values listed here are drawn from patent US4587245A.
